# measurementParameters: in water, 313.15 K
measuredMetric: solubility (mole fraction)

Incoming: What does the data say about its solubility (mole fraction)? Entry: "Nc1cccc(C(=O)O)c1"
Outgoing: 0.00135

###

# measurementParameters: in methyl acetate, 288.15 K
measuredMetric: solubility (mole fraction)
Write the number on its own, no unit after it.

Incoming: What does the data say about its solubility (mole fraction)? Entry: "Nc1cccc(C(=O)O)c1"
Outgoing: 0.00776

###

# measurementParameters: in methyl acetate, 313.15 K
measuredMetric: solubility (mole fraction)

Incoming: What does the data say about its solubility (mole fraction)? Entry: "Nc1cccc(C(=O)O)c1"
Outgoing: 0.0149

###

# measurementParameters: in acetone, 293.15 K
measuredMetric: solubility (mole fraction)
Write the number on its own, no unit after it.

Incoming: What does the data say about its solubility (mole fraction)? Entry: "Nc1cccc(C(=O)O)c1"
Outgoing: 0.0304

###

# measurementParameters: in 1,4-dioxane, 313.15 K
measuredMetric: solubility (mole fraction)
Write the number on its own, no unit after it.

Incoming: What does the data say about its solubility (mole fraction)? Entry: "Nc1cccc(C(=O)O)c1"
Outgoing: 0.0549

###

# measurementParameters: in isopropanol, 288.15 K
measuredMetric: solubility (mole fraction)
Write the number on its own, no unit after it.

Incoming: What does the data say about its solubility (mole fraction)? Entry: "Nc1cccc(C(=O)O)c1"
Outgoing: 0.00712

###

# measurementParameters: in methyl acetate, 293.15 K
measuredMetric: solubility (mole fraction)
Write the number on its own, no unit after it.

Incoming: What does the data say about its solubility (mole fraction)? Entry: "Nc1cccc(C(=O)O)c1"
Outgoing: 0.00841

###

# measurementParameters: in isopropyl acetate, 298.15 K
measuredMetric: solubility (mole fraction)

Incoming: What does the data say about its solubility (mole fraction)? Entry: "Nc1cccc(C(=O)O)c1"
Outgoing: 0.00591

###

# measurementParameters: in n-butanol, 293.15 K
measuredMetric: solubility (mole fraction)
Write the number on its own, no unit after it.

Incoming: What does the data say about its solubility (mole fraction)? Entry: "Nc1cccc(C(=O)O)c1"
Outgoing: 0.00682

###

# measurementParameters: in methanol, 313.15 K
measuredMetric: solubility (mole fraction)
Write the number on its own, no unit after it.

Incoming: What does the data say about its solubility (mole fraction)? Entry: "Nc1cccc(C(=O)O)c1"
Outgoing: 0.0219

###

# measurementParameters: in acetone, 288.15 K
measuredMetric: solubility (mole fraction)
Write the number on its own, no unit after it.

Incoming: What does the data say about its solubility (mole fraction)? Entry: "Nc1cccc(C(=O)O)c1"
Outgoing: 0.0295

###

# measurementParameters: in n-propanol, 303.15 K
measuredMetric: solubility (mole fraction)
Write the number on its own, no unit after it.

Incoming: What does the data say about its solubility (mole fraction)? Entry: "Nc1cccc(C(=O)O)c1"
Outgoing: 0.0107

###

# measurementParameters: in isobutanol, 298.15 K
measuredMetric: solubility (mole fraction)
Write the number on its own, no unit after it.

Incoming: What does the data say about its solubility (mole fraction)? Entry: "Nc1cccc(C(=O)O)c1"
Outgoing: 0.00683

###

# measurementParameters: in water, 323.15 K
measuredMetric: solubility (mole fraction)
Write the number on its own, no unit after it.

Incoming: What does the data say about its solubility (mole fraction)? Entry: "Nc1cccc(C(=O)O)c1"
Outgoing: 0.00184

###

# measurementParameters: in water, 303.15 K
measuredMetric: solubility (mole fraction)
Write the number on its own, no unit after it.

Incoming: What does the data say about its solubility (mole fraction)? Entry: "Nc1cccc(C(=O)O)c1"
Outgoing: 0.000976
